Reference source for all entries: patent US20230357320A1

% Retention values, listed per item
conditions: PAMPA;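 further: Phospholipid-membrane PAMPA, donor and acceptor in DPBS pH 7.4 with 5% DMSO, 37 °C for 5 h, compound in each well quantified by reverse-phase HPLC-MS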
Starred links: 1 amine or outer side, 2 acyl side, 3 side chain; linkers in the order of their positions; H or OH if unused. Positions of bridges follow the written chain, without caps; N, C: chain ends. Non-standard residues stand in square brackets, D forms with d. Residues, ends and D or L forms follow the SMILES beside them. X1 = O=C([C@]1(CC=[*:3])CCCN1[*:1])[*:2]; αAllylPro = C=CC[C@@]1(C(=O)O)CCCN1; Ala(cPr) = N[C@@H](CC1CC1)C(=O)O; S5 = C=CCCC[C@](C)(N)C(=O)O
Report the value in % with no unit label.

Previously resolved entries follow.
1) CNC(=O)[C@H](CC(=O)O)NC(=O)[C@H](CCC(N)=O)NC(=O)[C@H](CC(C)C)NC(=O)[C@H](CC(C)C)NC(=O)[C@H](Cc1ccc(O)cc1)NC(=O)[C@]1(C)CCCC=CCCC[C@](C)(NC(C)=O)C(=O)N[C@@H](C)C(=O)N[C@@H](CC2CC2)C(=O)N[C@@H](CC(C)C)C(=O)N1 [PLL7-7 variant 4] (Ac-[S5]A[Ala(cPr)]L[S5]YLLQD-NHMe; staple 1-5): 75
2) CC(=O)N1CCC[C@]12CC=CCCC[C@@](C)(C(=O)N[C@@H](Cc1c[nH]cn1)C(=O)N[C@@H](CC(C)C)C(=O)N[C@@H](CC(C)C)C(=O)N[C@@H](CC(N)=O)C(N)=O)NC(=O)[C@H](CC(C)C)NC(=O)[C@H](C)NC2=O (single isomer, unassigned): 76
3) CNC(=O)[C@H](Cc1ccc(O)cc1)NC(=O)[C@H](CCC(N)=O)NC(=O)[C@H](CC(C)C)NC(=O)[C@H](CC(C)C)NC(=O)[C@]1(C)CCCC=CC[C@]2(CCCN2C(C)=O)C(=O)N[C@@H](CC(C)C)C(=O)N[C@@H](Cc2c[nH]cn2)C(=O)N1 (single isomer, unassigned): 46
4) CNC(=O)[C@H](CC(=O)O)NC(=O)[C@H](CCC(N)=O)NC(=O)[C@H](CC(C)C)NC(=O)[C@H](CC(C)C)NC(=O)[C@H](Cc1ccc(O)cc1)NC(=O)[C@]1(C)CCCC=CC[C@]2(CCCN2C(C)=O)C(=O)N[C@@H](C)C(=O)N[C@@H](CC(C)C)C(=O)N1 (single isomer, unassigned): 107

Task item: Please list % Retention recorded for the compound CNC(=O)[C@H](Cc1c[nH]cn1)NC(=O)[C@H](CC(C)C)NC(=O)[C@H](CC(C)C)NC(=O)[C@H](Cc1ccc(O)cc1)NC(=O)[C@]1(C)CCCC=CC[C@]2(CCCN2C(C)=O)C(=O)N[C@@H](CC(C)C)C(=O)N[C@@H](CC(C)C)C(=O)N1 (single isomer, unassigned)
Reply: 89

Task item: Please list % Retention recorded for the compound CNC(=O)[C@H](CC(=O)O)NC(=O)[C@H](CC(=O)O)NC(=O)[C@H](CC(C)C)NC(=O)[C@H](CC(C)C)NC(=O)[C@H](Cc1ccc(O)cc1)NC(=O)[C@]1(C)CCCC=CC[C@]2(CCCN2C(C)=O)C(=O)N[C@@H]([C@@H](C)O)C(=O)N[C@@H](CC(C)C)C(=O)N1 (single isomer, unassigned)
Reply: 114

Task item: Please list % Retention recorded for the compound CNC(=O)[C@H](CC(=O)O)NC(=O)[C@H](CC(C)C)NC(=O)[C@H](CC(C)C)NC(=O)[C@H](CCCNC(=N)N)NC(=O)[C@]1(C)CCCC=CC[C@]2(CCCN2C(C)=O)C(=O)N[C@@H](CC(C)C)C(=O)N[C@@H](CC(C)C)C(=O)N1 [PLL5-8, Ac-PL3-Leu-Leu-S5-Arg-Leu-Leu-Asp-NHMe] (Ac-[X1]LL[S5]RLLD-NHMe; staple 1-4)
Reply: 104

Task item: Please list % Retention recorded for the compound CNC(=O)[C@H](Cc1ccc(O)cc1)NC(=O)[C@H](CC(C)C)NC(=O)[C@H](CC(C)C)NC(=O)[C@H](Cc1c[nH]cn1)NC(=O)[C@H](CCCNC(=N)N)NC(=O)[C@]1(C)CCCC=CC[C@]2(CCCN2C(C)=O)C(=O)N[C@@H](CC(C)C)C(=O)N[C@@H](CC(C)C)C(=O)N1 [PLL4-2] (Ac-[X1]LL[S5]RHLLY-NHMe; staple 1-4)
Reply: 43

Task item: Please list % Retention recorded for the compound C=CCCC[C@](C)(NC(=O)[C@H](CC(C)C)NC(=O)[C@H](CC1CC1)NC(=O)[C@]1(CC=C)CCCN1C(C)=O)C(=O)N[C@@H](Cc1ccc(O)cc1)C(=O)N[C@@H](CC(C)C)C(=O)N[C@@H](CC(C)C)C(=O)N[C@@H](CCC(N)=O)C(=O)N[C@@H](CC(=O)O)C(=O)NC [PLL7-7 variant 5] (Ac-[αAllylPro][Ala(cPr)]L[S5]YLLQD-NHMe)
Reply: 84

Task item: Please list % Retention recorded for the compound CNC(=O)[C@H](CC(=O)O)NC(=O)[C@H](CC(C)C)NC(=O)[C@H](CC(C)C)NC(=O)[C@H](Cc1ccc(O)cc1)NC(=O)[C@]1(C)CCCC=CC[C@]2(CCCN2)C(=O)N[C@@H](CC(C)C)C(=O)N[C@@H](CC(C)C)C(=O)N1 (single isomer, unassigned)
Reply: 66

Task item: Please list % Retention recorded for the compound CNC(=O)[C@H](CC(=O)O)NC(=O)[C@H](CC(C)C)NC(=O)[C@H](CC(C)C)NC(=O)[C@H](Cc1ccc(O)cc1)NC(=O)[C@]1(C)CCCC=CC[C@]2(CCCN2C(C)=O)C(=O)N[C@@H](CC(C)C)C(=O)N[C@@H](CC(C)C)C(=O)N1 [PLL4-10, Ac-PL3-Leu-Leu-S5-Tyr-Leu-Leu-Asp-NHMe] (Ac-[X1]LL[S5]YLLD-NHMe; staple 1-4)
Reply: 63

====

settings: PAMPA
Starred links: 1 amine or outer side, 2 acyl side, 3 side chain; linkers in the order of their positions; H or OH if unused. Positions of bridges follow the written chain, without caps; N, C: chain ends. Non-standard residues stand in square brackets, D forms with d. Residues, ends and D or L forms follow the SMILES beside them. X1 = O=C([C@]1(CC=[*:3])CCCN1[*:1])[*:2]; αAllylPro = C=CC[C@@]1(C(=O)O)CCCN1; Ala(cPr) = N[C@@H](CC1CC1)C(=O)O; S5 = C=CCCC[C@](C)(N)C(=O)O
parameter: % Retention (%)
Report the value in % with no unit label.

Previously resolved entries follow.
1) CNC(=O)[C@H](CC(=O)O)NC(=O)[C@H](CC(=O)O)NC(=O)[C@H](CC(C)C)NC(=O)[C@H](CC(C)C)NC(=O)[C@H](Cc1ccc(O)cc1)NC(=O)[C@]1(C)CCCC=CC[C@]2(CCCN2C(C)=O)C(=O)N[C@@H](CC(C)C)C(=O)N[C@@H](CC(C)C)C(=O)N1 [PLL5-2] (Ac-[X1]LL[S5]YLLDD-NHMe; staple 1-4): 97
2) C=CCCC[C@](C)(NC(=O)[C@H](CC(C)C)NC(=O)[C@H](CC(C)C)NC(=O)[C@]1(CC=C)CCCN1C(C)=O)C(=O)N[C@@H](Cc1ccc(O)cc1)C(=O)N[C@@H](CC(C)C)C(=O)N[C@@H](CC(C)C)C(=O)N[C@@H](CC(=O)O)C(=O)N[C@@H](CC(=O)O)C(=O)NC [PLL5-2 variant 5] (Ac-[αAllylPro]LL[S5]YLLDD-NHMe): 90
3) CNC(=O)[C@H](CC(=O)O)NC(=O)[C@H](CC(=O)O)NC(=O)[C@H](CC(C)C)NC(=O)[C@H](CC(C)C)NC(=O)[C@H](Cc1ccc(O)cc1)NC(=O)[C@]1(C)CCCC=CC[C@]2(CCCN2C(C)=O)C(=O)O[C@@H](CC(C)C)C(=O)N[C@@H](CC(C)C)C(=O)N1 (single isomer, unassigned) [PLL5-2 variant 2]: 47
4) CNC(=O)[C@@H](NC(=O)[C@H](CC(C)C)NC(=O)[C@H](CC(C)C)NC(=O)[C@H](CC1CC1)NC(=O)[C@]1(C)CCCC=CC[C@]2(CCCN2C(C)=O)C(=O)N[C@@H]([C@@H](C)O)C(=O)N[C@@H](CC(C)C)C(=O)N1)[C@@H](C)O [PLL7-23, Ac-PL3-Thr-Leu-S5-Cpa-Leu-Leu-Thr-NHMe] (Ac-[X1]TL[S5][Ala(cPr)]LLT-NHMe; staple 1-4): 92

Task item: Please list % Retention recorded for the molecule C=CCCC[C@](C)(NC(=O)[C@H](CC(C)C)NC(=O)[C@H](C)NC(=O)[C@]1(CC=C)CCCN1C(C)=O)C(=O)N[C@@H](Cc1c[nH]cn1)C(=O)N[C@@H](CC(C)C)C(=O)N[C@@H](CC(C)C)C(=O)N[C@@H](CC(N)=O)C(=O)NC [PLL7-20 variant 5, Ac-PL3-Ala-Leu-S5-His-Leu-Leu-Asn-NHMe] (Ac-[αAllylPro]AL[S5]HLLN-NHMe)
Reply: 88

Task item: Please list % Retention recorded for the molecule CNC(=O)[C@H](CC(=O)O)NC(=O)[C@H](Cc1c[nH]cn1)NC(=O)[C@H](CC(C)C)NC(=O)[C@H](CC(C)C)NC(=O)[C@H](CCCNC(=N)N)NC(=O)[C@]1(C)CCCC=CC[C@]2(CCCN2)C(=O)N[C@@H](CC(C)C)C(=O)N[C@@H](CC(C)C)C(=O)N1 (single isomer, unassigned) [PLL7-9 variant 1]
Reply: 86
